Catalogue of binders with associated IC50
- Tested system: T1, human CCR8 (human, UniProt P51685 1-355)
- T1 construct: whole, on cells; also called hCCR8
- T1 sequence (P51685 whole entry): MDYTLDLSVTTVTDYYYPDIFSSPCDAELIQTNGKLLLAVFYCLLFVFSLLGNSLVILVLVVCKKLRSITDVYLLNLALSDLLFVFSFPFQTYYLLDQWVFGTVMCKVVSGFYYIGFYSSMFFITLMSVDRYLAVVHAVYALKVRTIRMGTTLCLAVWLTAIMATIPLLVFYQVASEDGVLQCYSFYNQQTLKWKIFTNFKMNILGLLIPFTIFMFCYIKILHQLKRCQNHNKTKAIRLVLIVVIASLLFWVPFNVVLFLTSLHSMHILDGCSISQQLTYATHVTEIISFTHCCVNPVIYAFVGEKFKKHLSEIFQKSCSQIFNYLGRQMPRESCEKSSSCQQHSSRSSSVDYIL
- Assay text: FACS, competition with AF647-human CCL1 on CHO-K1-human CCR8 cells
Value type: IC50 (nM)

[
  {
    "Binder": "CM348 (antibody, V domains shown, CM348 is not defined in words; also called CM348 HuIgG1; parental antibody CM348) VH: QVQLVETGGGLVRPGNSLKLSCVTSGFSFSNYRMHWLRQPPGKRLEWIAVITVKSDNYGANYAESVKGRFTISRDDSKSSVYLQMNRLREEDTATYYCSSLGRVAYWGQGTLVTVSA VL: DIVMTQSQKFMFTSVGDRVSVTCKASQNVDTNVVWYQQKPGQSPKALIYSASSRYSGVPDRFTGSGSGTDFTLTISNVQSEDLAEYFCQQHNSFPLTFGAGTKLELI",
    "Quantitative result": 0.17
  },
  {
    "Binder": "Hu348-4 (antibody, human IgG1, V domains shown, humanized, human IgG1; also called Hu348-4 HuIgG1) VH: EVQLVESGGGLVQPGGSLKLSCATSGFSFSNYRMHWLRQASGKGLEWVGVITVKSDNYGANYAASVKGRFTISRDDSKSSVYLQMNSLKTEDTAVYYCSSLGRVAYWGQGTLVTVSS VL: DIQMTQSPSSVSASVGDRVTITCKASQNVDTNVVWYQQKPGQSPKALIYSASSRYSGVPSRFSGSGSGTDFTLTISSLQPEDFATYYCQQHNSFPLTFGQGTKLEIK",
    "Quantitative result": 0.151
  },
  {
    "Binder": "Hu348-9 (antibody, V domains shown, humanized IgG) VH: EVQLVESGGGLVQPGGSLKLSCATSGFSFSNYRMHWLRQASGKGLEWVGVITVKSDNYGANYAASVKGRFTISRDDSKSSVYLQMNSLKTEDTAVYYCTSLGRVAYWGQGTLVTVSS VL: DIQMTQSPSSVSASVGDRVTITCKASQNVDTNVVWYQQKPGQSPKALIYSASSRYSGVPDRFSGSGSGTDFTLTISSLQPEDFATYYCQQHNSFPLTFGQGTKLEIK",
    "Quantitative result": 0.333
  }
]

Values compiled from patent US20250034266A1.
